Each entry below carries its recorded Mean fluorescence intensity.
Molecular target: T1, human TIM-3, full length, on cells (human, UniProt Q8TDQ0 22-301)
T1 construct: Also used here for native TIM-3 on PBMC in the functional rows; also called CHOK1-hTIM-3; HEK293-h TIM-3
T1 sequence: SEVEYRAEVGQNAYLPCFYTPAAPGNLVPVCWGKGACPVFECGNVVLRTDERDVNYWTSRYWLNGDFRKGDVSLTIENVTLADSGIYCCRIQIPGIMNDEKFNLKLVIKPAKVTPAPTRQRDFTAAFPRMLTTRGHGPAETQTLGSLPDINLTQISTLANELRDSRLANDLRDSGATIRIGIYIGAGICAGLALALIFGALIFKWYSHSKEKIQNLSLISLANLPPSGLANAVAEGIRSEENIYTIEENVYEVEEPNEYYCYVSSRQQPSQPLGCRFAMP
Assay: FACS, CHOK1-hTIM-3 cells; antibody 8 nM
No unit in the answer, please; the number alone is enough.

7A4F10 (TIM-3 antibody purified from hybridoma, chimeric antibody of Example 2) (antibody, V domains shown, From hybridoma of Harbour H2L2 transgenic mice: human variable regions, rat constant regions) VH: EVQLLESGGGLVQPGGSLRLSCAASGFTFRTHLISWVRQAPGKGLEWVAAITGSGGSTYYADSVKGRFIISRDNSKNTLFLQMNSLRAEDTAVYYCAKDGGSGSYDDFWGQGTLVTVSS VL: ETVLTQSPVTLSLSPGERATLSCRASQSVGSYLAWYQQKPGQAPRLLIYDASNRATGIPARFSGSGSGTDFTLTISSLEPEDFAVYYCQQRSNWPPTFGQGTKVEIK = 56.2
18D2H2 (TIM-3 antibody purified from hybridoma, chimeric antibody of Example 2) (antibody, V domains shown, From hybridoma of Harbour H2L2 transgenic mice: human variable regions, rat constant regions) VH: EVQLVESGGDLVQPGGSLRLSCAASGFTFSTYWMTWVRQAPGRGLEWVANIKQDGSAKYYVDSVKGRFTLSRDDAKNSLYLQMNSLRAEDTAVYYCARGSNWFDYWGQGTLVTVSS VL: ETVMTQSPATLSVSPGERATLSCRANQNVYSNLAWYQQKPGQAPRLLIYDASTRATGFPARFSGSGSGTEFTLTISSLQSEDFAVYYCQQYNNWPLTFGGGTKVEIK = 107

Let's switch to this binder now.
In: Quote Mean fluorescence intensity reported for 134H3G6 (TIM-3 antibody purified from hybridoma, chimeric antibody of Example 2) (antibody, V domains shown, From hybridoma of Harbour H2L2 transgenic mice: human variable regions, rat constant regions) VH: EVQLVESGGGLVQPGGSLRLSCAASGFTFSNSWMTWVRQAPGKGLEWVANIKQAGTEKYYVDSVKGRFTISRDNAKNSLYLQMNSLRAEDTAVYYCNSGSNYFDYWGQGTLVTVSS VL: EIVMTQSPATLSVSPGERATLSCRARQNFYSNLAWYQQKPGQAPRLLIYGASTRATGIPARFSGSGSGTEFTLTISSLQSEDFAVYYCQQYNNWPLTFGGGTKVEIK please.
Out: 139

Ref: patent US20220033501A1
